// each record: one item and its Ki for trypsin 1 (cationic trypsin) (Homo sapiens)
Measured Endpoint: Ki (µM)

{"Compound": "N=C(N)c1ccc(OCCCCCOc2ccc(C(=N)N)cc2)cc1 [Pentamidine, pentamidine]", "Test Target": "trypsin 1 (cationic trypsin) (Homo sapiens)", "Measurement": 3.12}
{"Compound": "N=C(N)c1ccc(/C=C/c2ccc(C(=N)N)cc2O)cc1 [Hydroxystilbamidine, hydroxystilbamidine]", "Test Target": "trypsin 1 (cationic trypsin) (Homo sapiens)", "Measurement": 3.35}
{"Compound": "N=C(N)c1ccc(/N=N/Nc2ccc(C(=N)N)cc2)cc1 [Diminazene]", "Test Target": "trypsin 1 (cationic trypsin) (Homo sapiens)", "Measurement": 3.44}

This collection of values is drawn from paper PMC5413004.
